# method-description: Metal chelating activity assessed as compound-Zn2+ complex formation by UV-vis spectrophotometric analysis
Calls of active or inactive are those of the source. The calls are words filed in the database; no cut-off is given here.
# output must be one of active, inactive

Would you please look over these solved cases?
Hey, what did the test say about CCN1/C(=C/c2c(N/N=C/c3c(CO)cnc(C)c3O)c(=O)c2=O)Sc2ccccc21 ?
inactive

Hey, what did the test say about COc1cccc(/C=N/Nc2nncc3ccccc23)c1O ?
active

Further cases:
Hey, what did the test say about COc1cccc(/C=N/NC(=O)c2ccc(NC(=O)CC[C@@H](C)[C@H]3CC[C@H]4[C@@H]5[C@H](O)C[C@@H]6C[C@H](O)CC[C@]6(C)[C@H]5C[C@H](O)[C@]34C)cc2)c1O (stereo in doubt) ?
active

Hey, what did the test say about Cc1ncc(CO)c(/C=N/Nc2nncc3ccccc23)c1O ?
inactive

Hey, what did the test say about CCN1/C(=C/c2c(NN=C(c3ccccn3)c3ccccn3)c(=O)c2=O)Sc2ccccc21 ?
active

Hey, what did the test say about C[C@H](CCC(=O)Nc1ccc(C(=O)N/N=C/c2ccc(C(C)(C)C)cc2O)cc1)[C@H]1CC[C@H]2[C@@H]3[C@H](O)C[C@@H]4C[C@H](O)CC[C@]4(C)[C@H]3C[C@H](O)[C@]12C (stereo in doubt) ?
active

Hey, what did the test say about CC(C)(C)c1ccc(O)c(/C=N/Nc2nncc3ccccc23)c1 ?
active

====

# method-description: Metal chelating activity assessed as compound-Zn2+ complex formation by UV-vis spectrophotometric analysis
Active and inactive are the calls of the source. The rule behind the calls is not given here.
# output must be one of t (active), f (inactive)

Hey, what did the test say about C[C@H](CCC(=O)Nc1ccc(C(=O)NN=C(c2ccccn2)c2ccccn2)cc1)[C@H]1CC[C@H]2[C@@H]3[C@H](O)C[C@@H]4C[C@H](O)CC[C@]4(C)[C@H]3C[C@H](O)[C@]12C ?
f

Hey, what did the test say about C[C@H](CCC(=O)NN=C(c1ccccn1)c1ccccn1)[C@H]1CC[C@H]2[C@@H]3[C@H](O)C[C@@H]4C[C@H](O)CC[C@]4(C)[C@H]3C[C@H](O)[C@]12C ?
f

Hey, what did the test say about C[C@H](CCC(=O)N/N=C/c1ccc(C(C)(C)C)cc1O)[C@H]1CC[C@H]2[C@@H]3[C@H](O)C[C@@H]4C[C@H](O)CC[C@]4(C)[C@H]3C[C@H](O)[C@]12C ?
f

Further cases:
Hey, what did the test say about COc1ccc(Nc2c(N/N=C/c3ccc(C(C)(C)C)cc3O)c(=O)c2=O)cc1 ?
f

Hey, what did the test say about CCN1/C(=C/c2c(N/N=C/c3ccc4ccccc4n3)c(=O)c2=O)Sc2ccccc21 ?
t

Hey, what did the test say about Cc1ncc(CO)c(/C=N/NC(=O)CC[C@@H](C)[C@H]2CC[C@H]3[C@@H]4[C@H](O)C[C@@H]5C[C@H](O)CC[C@]5(C)[C@H]4C[C@H](O)[C@]23C)c1O ?
t

Hey, what did the test say about Cc1ncc(CO)c(/C=N/NC(=O)c2ccc(NC(=O)CC[C@@H](C)[C@H]3CC[C@H]4[C@@H]5[C@H](O)C[C@@H]6C[C@H](O)CC[C@]6(C)[C@H]5C[C@H](O)[C@]34C)cc2)c1O (stereo in doubt) ?
t

Hey, what did the test say about C[C@H](CCC(=O)N/N=C/c1ccc2ccccc2n1)[C@H]1CC[C@H]2[C@@H]3[C@H](O)C[C@@H]4C[C@H](O)CC[C@]4(C)[C@H]3C[C@H](O)[C@]12C ?
f

Hey, what did the test say about COc1ccc(Nc2c(N/N=C/c3ccc4ccccc4n3)c(=O)c2=O)cc1 ?
f

Hey, what did the test say about CCN1/C(=C/c2c(N/N=C/c3cccc(OC)c3O)c(=O)c2=O)Sc2ccccc21 ?
f

Hey, what did the test say about c1ccc(C(=NNc2nncc3ccccc23)c2ccccn2)nc1 ?
t
